Data origin, for the record: PubChem BioAssay (NCI)

- Test system: T-47D breast
- experiment_description: NCI tumour cell line growth inhibition, 48 h
observed_property: TGI (µM)
Report as a plain number; the unit µM is understood.

COC(=O)NC1C(C)OC(OC2C/C=C(/C)C3C=CC4C(OC5CC(OC6CCC(OC7CC(O)C(OC8CCC(O)C(C)O8)C(C)O7)C(C)O6)C(OC(C)=O)C(C)O5)C(C)CC(C)C4C3(C)/C(O)=C3/C(=O)OC4(CC(C=O)=CC(O)C4/C=C\2C)C3=O)CC1(C)[N+](=O)[O-] (centres undefined)
10.2

// next entry
Exercise: Record request: TGI value, item c1ccc(-c2oc(-c3ccccc3)c(CN3CCCCC3)c2CN2CCCCC2)cc1
Solution: 11.7

---

- System: UO-31 renal
- experiment_description: NCI tumour cell line growth inhibition, 48 h
Quick list: TGI per entry.

Answered cases to consult:
CSc1ncnc2c1cnn2Cc1cn(COCCO)nn1
> 100 µM
CCCn1c2c(c3ccccc3c1=O)C(=O)c1ccccc1-2
> 100 µM
CCCCCCCC/C=C1\CCC(CN(C)C)C1=O (stereo unspecified)
25.2 µM
CC(C)c1cccc(C(C)C)c1NC(=O)C(=O)Cc1nc2ccc([N+](=O)[O-])cc2[nH]c1=O
> 100 µM
CN=c1ss/c(=N\C(=S)N(C)C)n1C
> 100 µM

// next entry
Exercise: Record request: TGI value, item FC(F)(F)c1ccccc1C1SCC2=Nc3ccccc3CN21 (stereo unspecified)
Solution: 24.1 µM

---

- Tested on: RPMI-8226 leukemia
- experiment_description: NCI tumour cell line growth inhibition, 48 h
Quick list: TGI per entry.

CC(C)C1CNC(=O)C2(C=NC(C(C)C)CNC(=O)C3(C=N1)CCCO3)CCCO2 (configuration not stated)
> 10 µM
COCC(C)(C)N=CN1Cc2cc3ccccc3nc2C1
> 100 µM
C[C@H]1CC[P+](Cc2ccccc2)(c2ccccc2)C1 (some centres not stated)
> 100 µM
CC1=NN(c2nc(N)nc(NS(=O)(=O)c3cc(C)c(Cl)cc3S)n2)C(C)(C)C1
> 10 µM

Exercise: Record request: TGI value, item CC(=O)Nc1[nH]n(C)c(=O)c1-c1nnc(C)s1
Solution: > 100 µM

Exercise: Record request: TGI value, item Cc1c(C)c2c(c(N)c1C#N)C(=O)N(O)C2=O
Solution: > 100 µM

Exercise: Record request: TGI value, item COc1ccc2c(c1)OC(N)=C(C#N)C2c1cc(OC)c(OC)c(OC)c1 (configuration not stated)
Solution: > 100 µM

Exercise: Record request: TGI value, item Cc1cc2ncn(-c3nc4ccccc4nc3C(C#N)S(C)(=O)=O)c2cc1C (configuration not stated)
Solution: > 100 µM

Exercise: Record request: TGI value, item O=C1/C(=C/c2ccc(Cl)c(Cl)c2)CN(C(=O)C(Cl)Cl)C/C1=C\c1ccc(Cl)c(Cl)c1
Solution: 0.485 µM

Exercise: Record request: TGI value, item CCOC(=O)c1c(-c2ccccc2)[n+](=O)c2cc(Cl)c(Cl)cc2n1[O-]
Solution: 1.51 µM

Exercise: Record request: TGI value, item O=C1NC(=S)S/C1=C\c1cn(-c2ccccc2)nc1-c1ccccc1
Solution: 68.6 µM

Exercise: Record request: TGI value, item CC(C)(O)/C1=C/C=C/CCCCCCCCCC1
Solution: > 100 µM

Exercise: Record request: TGI value, item O=C(O/N=C1\CCCC\C1=C/c1ccccc1)c1ccc([N+](=O)[O-])cc1
Solution: > 100 µM

Exercise: Record request: TGI value, item Nc1nc(NNc2cccc(F)c2)cc(=O)[nH]1
Solution: > 100 µM

Exercise: Record request: TGI value, item Cc1ccc(NC(=O)CCCC(=O)CC(=O)c2ccc(Br)cc2)cc1
Solution: > 100 µM

Exercise: Record request: TGI value, item COC(=O)CCSC(=O)Nc1ccc(N=Nc2ccccc2)cc1
Solution: > 100 µM

Exercise: Record request: TGI value, item COc1cc(OC2OC(CO)C(O)C(O)C2O)c2c(O)c3c(=O)cc(C)oc3cc2c1 (configuration not stated)
Solution: > 100 µM

Exercise: Record request: TGI value, item O=c1[nH]/c(=C/c2ccc3c(c2)OCO3)c(=O)[nH]/c1=C/c1ccc2c(c1)OCO2
Solution: > 10 µM

Exercise: Record request: TGI value, item O=Cc1c[nH]c2c(=O)[nH]cnc12
Solution: > 100 µM

Exercise: Record request: TGI value, item O=C1CN(c2ccccc2)Cc2nc(Cl)ccc2N1
Solution: > 100 µM

Exercise: Record request: TGI value, item COc1ccc(/C=c2\c(=O)[nH]c3nc4ccccc4c(=O)n23)cc1
Solution: > 100 µM

Exercise: Record request: TGI value, item [N-]=[N+]=Nc1ccccc1-c1ccccc1[N+](=O)[O-]
Solution: > 100 µM

---

- Tested on: NCI-H23 lung
- experiment_description: NCI tumour cell line growth inhibition, 48 h
observed_property: TGI

Answered cases to consult:
CCN(CC)CCCNc1c2c(Cl)cc(Cl)cc2nc2nc(=O)[nH]c(C)c12
> 100 µM
N#CCn1c(=O)c(Oc2ccc(F)cc2F)cc2cnc(NC3CCOCC3)nc21
> 25 µM
CS(=O)(=O)N1CC(CCl)c2ccc(NO)cc21 (stereo unspecified)
18 µM
O=C1[C@@H]2C(c3ccc(Br)cc3)=NO[C@@H]2C(=O)N1c1ccc(Cc2ccc(N3C(=O)[C@H]4C(c5ccc(Br)cc5)=NO[C@H]4C3=O)cc2)cc1
> 3.48 µM
CCN(CC)c1ccc2nc3ccc(N=Nc4ccc(N(C)C)cc4)cc3[n+](-c3ccccc3)c2c1
1.37 µM

Exercise: Record request: TGI value, item Brc1ccc(C2C3CSc4ccccc4C3=NN2c2ccccc2)cc1 (stereo unspecified)
Solution: > 100 µM

Exercise: Record request: TGI value, item O=C1c2ccccc2C(=O)c2cc3c(cc21)CS(=O)C3
Solution: > 100 µM

Exercise: Record request: TGI value, item CN(C)c1ccc(/C=C\c2ccnc3ccccc23)cc1
Solution: 63.4 µM

Exercise: Record request: TGI value, item O=C1NC(=NCc2ccccc2Cl)S/C1=C\c1ccc2ncccc2c1
Solution: > 25 µM

Exercise: Record request: TGI value, item CSc1nc(=S)[nH]c2c1c(C)nn2-c1ccccc1
Solution: 45.8 µM

Exercise: Record request: TGI value, item Nc1nc(NNc2cccc(F)c2)cc(=O)[nH]1
Solution: > 100 µM

Exercise: Record request: TGI value, item NC(=O)c1ccc2c(c1)-c1nc-2nc2[n-]c(nc3nc(nc4[n-]c(n1)c1ccc(C(N)=O)cc41)-c1ccc(C(N)=O)cc1-3)c1ccc(C(N)=O)cc21.[Co+2]
Solution: > 50 µM

Exercise: Record request: TGI value, item COC(=O)C1(NC(=O)C(Cc2ccccc2)N(C(=O)OC(C)(C)C)C(=O)OC(C)(C)C)CCCC1 (stereo unspecified)
Solution: > 100 µM

Exercise: Record request: TGI value, item CC1=NN=C(C)C1N=Nc1ccc2nc(C)[nH]c2c1
Solution: > 100 µM

Exercise: Record request: TGI value, item CC(C)(C)N=CN1C=Cc2nc3ccccc3cc2C1
Solution: > 100 µM

Exercise: Record request: TGI value, item O=[N+]([O-])C(=C/c1ccccc1)/C(=C\c1ccccc1)[N+](=O)[O-]
Solution: 31.1 µM

Exercise: Record request: TGI value, item COc1cc2ccc3c4ccccc4cnc3c2cc1OC
Solution: > 100 µM

Exercise: Record request: TGI value, item COc1cc([N+](=O)[O-])c(OC)cc1-c1nc2sc(C)c(C)n2c1/C(N)=N/C(=N)N
Solution: > 100 µM

Exercise: Record request: TGI value, item C=C1C[C@H]2C=Nc3cc(OCCCOc4cc5c(cc4OC)C(=O)N4CC(=C)C[C@H]4C=N5)c(OC)cc3C(=O)N2C1
Solution: 0.0158 µM

Exercise: Record request: TGI value, item CCOc1ccccc1N=Nc1ccc2oc(=O)c(C(C)=O)cc2c1
Solution: > 100 µM

Exercise: Record request: TGI value, item CCNC(=O)C(C)C1CCC2(C)C=CC(=O)C(C)=C2C1O (stereo unspecified)
Solution: > 100 µM

---

- Test system: RXF 393 renal
- experiment_description: NCI tumour cell line growth inhibition, 48 h
Quick list: TGI per entry.
Report as a plain number; the unit µM is understood.

Answered cases to consult:
CCOC(=O)c1c(-c2ccccc2)[n+](=O)c2cc(Cl)c(Cl)cc2n1[O-]
22.9
O=[N+]([O-])c1ccc(C2=Nc3ccccc3S(=O)C(c3ccccc3)C2)cc1 (stereo unspecified)
29

// next entry
Exercise: API: value(readout=TGI, system=RXF 393 renal) for record CSc1nc(=S)[nH]c2c1c(C)nn2-c1ccccc1
Solution: 94.1
